Item-by-item account of IC50
Target: MBP-HTT(1-89)Q46-His(6×) (“Exon1-Q46”) protein aggregates (Homo sapiens, UniProt P42858, INS38QQQQQQQQQQQQQQQQQQQQQQQQQ)
Construct: MBP-HTT(1-89)Q46-His(6×); His(6×) (C); made in house
Sequence (P42858 with tags, fused parts or gaps with the stated changes limits assumed): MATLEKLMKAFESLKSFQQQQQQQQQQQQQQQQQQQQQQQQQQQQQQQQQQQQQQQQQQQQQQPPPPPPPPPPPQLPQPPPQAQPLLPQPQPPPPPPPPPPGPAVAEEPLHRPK
Assay: Exon1-Q46 Radioligand Binding Assay
Details: displacement of 0.3 nM [3H3-methyl]-5-((5-methoxypyridin-2-yl)methoxy)-2-(pyrazin-2-yl)benzo[d]oxazole from 1 μM aggregated Exon1-Q46, 60 minutes at 37° C.; read-out: Potency Range (IC50)

- Cn1ncc2c(=O)n(CCC(=O)Nc3ccccc3F)c3cc(F)ccc3c21: < 100 nM
- COc1ccnc(NC(=O)CCCn2c(=O)c3cccn3c3ncccc32)c1: < 100 nM
- CN(C)C(=O)CCCn1c(=O)c2cccn2c2ccc(F)cc21: < 100 nM
- O=C(CCn1c(=O)c2cccn2c2ccc(F)cc21)NCc1ccccc1: < 100 nM
- COC1CCN(C(=O)CCn2c(=O)c3cccn3c3ccc(F)cc32)C1 (stereo not drawn): < 100 nM
- CN1CCN(C(=O)CCCn2c(=O)c3cccn3c3ccc(F)cc32)CC1=O: < 100 nM
- COc1ccc(NC(=O)CCCn2c(=O)c3cccn3c3ccncc32)cc1: < 100 nM
- Cn1ncc2c(=O)n(CCC(=O)Nc3cc(F)ccc3F)c3cc(F)ccc3c21: < 100 nM

Could you now consider this next compound?
Find the measured IC50 of CC1CCC(N(C)C(=O)CCCn2c(=O)c3cccn3c3ccc(F)cc32)CC1 (stereo not drawn) and report it. < 100 nM
